# Tested on: Pyricularia oryzae
# measurementProtocol: Antifungal activity against Magnaporthe oryzae assessed as inhibition of spore germination incubated for 8 hrs
# Assay type: functional, organism-based

smilesCode: O=C1C=C[C@H](O)[C@@]23O[C@@]12C1(Oc2cccc4cccc(c24)O1)[C@H](O)[C@@H](O)[C@@H]3O
IC50: > 200 µg/mL
//
smilesCode: O[C@@H]1C=C[C@H](O)[C@@]23O[C@@]12C1(Oc2cccc4cccc(c24)O1)[C@@H]1O[C@@H]1[C@@H]3O
IC50: > 200 µg/mL
//
smilesCode: Oc1ccc(O)c2c1[C@@H](O)[C@H]1O[C@H]1C21Oc2cccc3cccc(c23)O1
IC50: 76.7 µg/mL

----------
# measurementProtocol: Cytotoxicity against human BGC823 cells by MTT assay
# conditionInfo: BGC-823
IC50 by entry:

smilesCode: O=C1C=C[C@H](O)[C@@]23O[C@@]12C1(Oc2cccc4cccc(c24)O1)[C@@H]1O[C@@H]1[C@@H]3O
IC50: > 10 µM
//
smilesCode: O=C1C[C@H](O)[C@H](O)C2=C[C@H](O)[C@@H](O)C3(Oc4cccc5cccc(c45)O3)[C@]12O
IC50: > 10 µM
//
smilesCode: Oc1ccc(O)c2c1C=C[C@@H](O)C21Oc2cccc3cccc(c23)O1
IC50: > 10 µM

----------
# IC50 listing for each entry below
# System: A549
# measurementProtocol: Cytotoxicity against human A549 cells by MTT assay
# Type: functional, cell-based

smilesCode: O[C@@H]1C=C[C@H](O)[C@@]23O[C@@]12C1(Oc2cccc4cccc(c24)O1)[C@@H]1O[C@@H]1[C@@H]3O
IC50: > 10 µM

smilesCode: O=C1CCC2(Oc3cccc4cccc(c34)O2)c2c(O)ccc(O)c21
IC50: > 10 µM

smilesCode: O=C1C[C@@H](O)C2(Oc3cccc4cccc(c34)O2)c2c(O)ccc(O)c21
IC50: > 10 µM

smilesCode: O=C1C=C[C@H](O)[C@@]23O[C@@]12C1(Oc2cccc4cccc(c24)O1)[C@H](O)[C@@H](O)[C@@H]3O
IC50: > 10 µM

smilesCode: O=C1C[C@H](O)[C@H](O)[C@@]23O[C@@]12C1(Oc2cccc4cccc(c24)O1)[C@@H]1O[C@@H]1[C@@H]3O
IC50: > 10 µM

smilesCode: Oc1cccc2c1[C@@H](O)[C@H]1O[C@H]1C21Oc2cccc3cccc(c23)O1
IC50: > 10 µM

smilesCode: Oc1ccc(O)c2c1C=C[C@@H](O)C21Oc2cccc3cccc(c23)O1
IC50: > 10 µM

smilesCode: O=C1CC[C@@H](O)[C@@]23O[C@@]12C1(Oc2cccc4cccc(c24)O1)[C@H](O)[C@@H](O)[C@@H]3O
IC50: > 10 µM

smilesCode: O=C1C=C[C@H](O)[C@@]23O[C@@]12C1(Oc2cccc4cccc(c24)O1)[C@@H]1O[C@@H]1[C@@H]3O
IC50: 8.8 µM

smilesCode: O[C@@H]1[C@@H](O)C2(Oc3cccc4cccc(c34)O2)[C@@]23O[C@@]2([C@@H](O)CC[C@H]3O)[C@H]1O
IC50: > 10 µM

smilesCode: O=C1C(Cl)=CC2(Oc3cccc4cccc(c34)O2)[C@]23O[C@]12[C@H](O)CCC3=O
IC50: 1.6 µM

smilesCode: Oc1ccc(O)c2c1[C@@H](O)[C@H]1O[C@H]1C21Oc2cccc3cccc(c23)O1
IC50: > 10 µM

smilesCode: O[C@@H]1[C@@H](O)C2(Oc3cccc4cccc(c34)O2)[C@@]23O[C@@]2([C@@H](O)C=C[C@H]3O)[C@H]1O
IC50: > 10 µM

smilesCode: CO[C@@H]1CC(=O)[C@]23O[C@]2([C@@H](O)[C@H]2O[C@H]2C32Oc3cccc4cccc(c34)O2)[C@H]1O
IC50: 8.7 µM

smilesCode: O=C1C[C@H](O)[C@H](O)C2=C[C@H](O)[C@@H](O)C3(Oc4cccc5cccc(c45)O3)[C@]12O
IC50: > 10 µM

smilesCode: O[C@@H]1CC[C@H](O)[C@@]23O[C@@]12C1(Oc2cccc4cccc(c24)O1)[C@@H]1O[C@@H]1[C@@H]3O
IC50: > 10 µM

smilesCode: O=C1C[C@@H](O)[C@H](O)[C@@]23O[C@@]12C1(Oc2cccc4cccc(c24)O1)[C@@H]1O[C@@H]1[C@@H]3O
IC50: 3.2 µM

smilesCode: O=C1CCC2(Oc3cccc4cccc(c34)O2)c2c(Cl)ccc(O)c21
IC50: > 10 µM

----------
# System: Bacillus subtilis
# measurementProtocol: Antibacterial activity against Bacillus subtilis ATCC 11562 by modified broth dilution method
# Format: functional
Entries and their MIC
endpoint: MIC

molecule: O[C@@H]1[C@@H](O)C2(Oc3cccc4cccc(c34)O2)[C@@]23O[C@@]2([C@@H](O)C=C[C@H]3O)[C@H]1O
result: > 250 µg/mL
--
molecule: O=C1C(Cl)=CC2(Oc3cccc4cccc(c34)O2)[C@]23O[C@]12[C@H](O)CCC3=O
result: 50 µg/mL
--
molecule: O[C@@H]1[C@@H](O)C2(Oc3cccc4cccc(c34)O2)[C@@]23O[C@@]2([C@@H](O)CC[C@H]3O)[C@H]1O
result: > 250 µg/mL
--
molecule: O=C1C[C@H](O)[C@H](O)[C@@]23O[C@@]12C1(Oc2cccc4cccc(c24)O1)[C@@H]1O[C@@H]1[C@@H]3O
result: > 250 µg/mL
--
molecule: O=C1CCC2(Oc3cccc4cccc(c34)O2)c2c(O)ccc(O)c21
result: > 250 µg/mL
--
molecule: CN[C@@H]1[C@H](O[C@H]2[C@H](O[C@H]3[C@H](O)[C@@H](O)[C@H](N=C(N)N)[C@@H](O)[C@@H]3N=C(N)N)O[C@@H](C)[C@]2(O)C=O)O[C@@H](CO)[C@H](O)[C@H]1O.CN[C@@H]1[C@H](O[C@H]2[C@H](O[C@H]3[C@H](O)[C@@H](O)[C@H](N=C(N)N)[C@@H](O)[C@@H]3N=C(N)N)O[C@@H](C)[C@]2(O)C=O)O[C@@H](CO)[C@H](O)[C@H]1O.O=S(=O)(O)O.O=S(=O)(O)O.O=S(=O)(O)O [STREPTOMYCIN SULFATE]
result: 5 µg/mL
--
molecule: Oc1cccc2c1[C@@H](O)[C@H]1O[C@H]1C21Oc2cccc3cccc(c23)O1
result: 25 µg/mL
--
molecule: O[C@@H]1C=C[C@H](O)[C@@]23O[C@@]12C1(Oc2cccc4cccc(c24)O1)[C@@H]1O[C@@H]1[C@@H]3O
result: > 250 µg/mL

----------
# Test system: Pyricularia oryzae
# measurementProtocol: Antifungal activity against Magnaporthe oryzae assessed as inhibition of spore germination incubated for 8 hrs
# Assay type: functional, organism-based
endpoint: IC50

smilesCode: O=C1C=C[C@H](O)[C@@]23O[C@@]12C1(Oc2cccc4cccc(c24)O1)[C@@H]1O[C@@H]1[C@@H]3O
system: Pyricularia oryzae
result: 105 µg/mL
--
smilesCode: O=C1CC[C@@H](O)[C@@]23O[C@@]12C1(Oc2cccc4cccc(c24)O1)[C@H](O)[C@@H](O)[C@@H]3O
system: Pyricularia oryzae
result: > 200 µg/mL
--
smilesCode: O[C@@H]1CC[C@H](O)[C@@]23O[C@@]12C1(Oc2cccc4cccc(c24)O1)[C@@H]1O[C@@H]1[C@@H]3O
system: Pyricularia oryzae
result: > 200 µg/mL
--
smilesCode: O=C1C[C@@H](O)C2(Oc3cccc4cccc(c34)O2)c2c(O)ccc(O)c21
system: Pyricularia oryzae
result: 64.8 µg/mL
--
smilesCode: O=C1CCC2(Oc3cccc4cccc(c34)O2)c2c(O)ccc(O)c21
system: Pyricularia oryzae
result: > 200 µg/mL
--
smilesCode: O[C@@H]1[C@@H](O)C2(Oc3cccc4cccc(c34)O2)[C@@]23O[C@@]2([C@@H](O)C=C[C@H]3O)[C@H]1O
system: Pyricularia oryzae
result: > 200 µg/mL
--
smilesCode: O=C1C[C@H](O)[C@H](O)C2=C[C@H](O)[C@@H](O)C3(Oc4cccc5cccc(c45)O3)[C@]12O
system: Pyricularia oryzae
result: > 200 µg/mL
--
smilesCode: O=C1C[C@@H](O)[C@H](O)[C@@]23O[C@@]12C1(Oc2cccc4cccc(c24)O1)[C@@H]1O[C@@H]1[C@@H]3O
system: Pyricularia oryzae
result: > 200 µg/mL
--
smilesCode: O[C@@H]1[C@@H](O)C2(Oc3cccc4cccc(c34)O2)[C@@]23O[C@@]2([C@@H](O)CC[C@H]3O)[C@H]1O
system: Pyricularia oryzae
result: > 200 µg/mL
--
smilesCode: O=C1CCC2(Oc3cccc4cccc(c34)O2)c2c(Cl)ccc(O)c21
system: Pyricularia oryzae
result: > 200 µg/mL
--
smilesCode: Oc1ccc(O)c2c1C=C[C@@H](O)C21Oc2cccc3cccc(c23)O1
system: Pyricularia oryzae
result: 35.9 µg/mL
--
smilesCode: COC(=O)Nc1nc2ccccc2[nH]1
system: Pyricularia oryzae
result: 6.3 µg/mL
--
smilesCode: O=C1C[C@H](O)[C@H](O)[C@@]23O[C@@]12C1(Oc2cccc4cccc(c24)O1)[C@@H]1O[C@@H]1[C@@H]3O
system: Pyricularia oryzae
result: > 200 µg/mL
--
smilesCode: CO[C@@H]1CC(=O)[C@]23O[C@]2([C@@H](O)[C@H]2O[C@H]2C32Oc3cccc4cccc(c34)O2)[C@H]1O
system: Pyricularia oryzae
result: > 200 µg/mL
--
smilesCode: O=C1C(Cl)=CC2(Oc3cccc4cccc(c34)O2)[C@]23O[C@]12[C@H](O)CCC3=O
system: Pyricularia oryzae
result: 9.1 µg/mL
--
smilesCode: Oc1cccc2c1[C@@H](O)[C@H]1O[C@H]1C21Oc2cccc3cccc(c23)O1
system: Pyricularia oryzae
result: 32.3 µg/mL
